biological target: human TMEM16A (TMEM16Aabc variant) (Homo sapiens); construct: human TMEM16A (TMEM16Aabc variant); assay: Automated whole-cell patch clamp (QPatch) TMEM16A potentiator assay in FRT cells stably expressing human TMEM16A; format: cell-based; details: 3.3 μM test compound; percentage increase of baseline TMEM16A current
reported metric: QPatch TMEM16A % Potentation @ 3.3 μM (%)

Completed entries (count: 4):
1. O=C(Cc1ccc2c(C(F)(F)F)n[nH]c2c1)Nc1ccnc(C(=O)NC2(C(F)(F)F)CC2)c1; 267
2. CC(C)(C)NC(=O)c1cc(NC(=O)Cc2cc(F)c3cn[nH]c3c2)ccn1; 95
3. O=C(Cc1ccc2cn[nH]c2c1)Nc1ccnc(C(=O)NC2(C(F)(F)F)CC2)c1; 155
4. O=C(Cc1ccc2cc[nH]c2c1)Nc1ccnc(C(=O)NC2(C(F)(F)F)CC2)c1; 173

(P) O=C(Cc1ccc2cn[nH]c2c1)Nc1ccnc(C(=O)NC2(C(F)F)CC2)c1
(Q) CC(O)(c1n[nH]c2cc(CC(=O)Nc3ccnc(C(=O)NC4(C(F)(F)F)CC4)c3)ccc12)C(F)(F)F (centres unmarked)
(R) O=C(Cc1ccc2cn[nH]c2c1)Nc1ccnc(C(=O)NC23CC(F)(C2)C3)c1
**Q:** Place the items in sequence of falling QPatch TMEM16A % Potentation @ 3.3 μM. Returns: the labels listed in the requested order.
**A:** Q, P, R

----------
molecular target: human TMEM16A (TMEM16Aabc variant) (Homo sapiens, UniProt Q5XXA6); construct: human TMEM16A (TMEM16Aabc variant); assay: Automated whole-cell patch clamp (QPatch) TMEM16A potentiator assay in FRT cells stably expressing human TMEM16A; assay type: cell-based; conditions: FRT-TMEM16A cells, whole-cell patch clamp, peak current at +70 mV, intracellular calcium at EC20
pEC50: −log10 of the molar value.
reported metric: pEC50

1. CC(C)(NC(=O)c1cc(NC(=O)Cc2ccc3cn[nH]c3c2)ccn1)C(F)(F)F; 7.05
2. CC(C)(NC(=O)c1cc(NC(=O)Cc2ccc3cc[nH]c3c2)ccn1)C(F)(F)F; 6.39
3. O=C(Cc1ccc2cn[nH]c2c1)Nc1ccnc(C(=O)NC2(C(F)(F)F)CC2)c1; 7.00
4. CC(O)(c1n[nH]c2cc(CC(=O)Nc3ccnc(C(=O)NC4(C(F)(F)F)CC4)c3)ccc12)C(F)(F)F (stereo not drawn); 6.62
5. O=C(Cc1ccc2cn[nH]c2c1)Nc1ccnc(C(=O)NC2(C(F)F)CC2)c1; 6.68

(P) O=C(Cc1ccc2cn[nH]c2c1)Nc1ccnc(C(=O)NC2(C(F)(F)F)COC2)c1
(Q) CC1(NC(=O)c2cc(NC(=O)Cc3ccc4cn[nH]c4c3)ccn2)CC(F)(F)C1
(R) C#CC1(NC(=O)c2cc(NC(=O)Cc3ccc4cn[nH]c4c3)ccn2)CCCC1
**Q:** Provide the items ranked by increasing pEC50. Returns: the labels listed in the requested order.
**A:** P, Q, R
(P: 6.66, Q: 7.30, R: 8.00)

----------
target: human TMEM16A (TMEM16Aabc variant) (Homo sapiens, UniProt Q5XXA6); construct: human TMEM16A (TMEM16Aabc variant); assay: Automated whole-cell patch clamp (QPatch) TMEM16A potentiator assay in FRT cells stably expressing human TMEM16A; details: FRT-TMEM16A cells, whole-cell patch clamp, peak current at +70 mV, intracellular calcium at EC20
reported metric: EC50 (nM)

Completed entries (count: 5):
1. O=C(Cc1ccc2cn[nH]c2c1)Nc1ccnc(C(=O)NC2CCCC2(F)F)c1 (centres unmarked) [Example 5.3]; 250
2. O=C(Cc1cc(Cl)c2cn[nH]c2c1)Nc1ccnc(C(=O)NC2(C(F)(F)F)CC2)c1 [Example 6.3]; 110
3. O=C(Cc1cc2[nH]ncc2cc1F)Nc1ccnc(C(=O)NC2CCCC2(F)F)c1 (centres unmarked) [Example 6.2]; 310
4. CC(C)(C)NC(=O)c1cc(NC(=O)Cc2ccc3c(C(F)(F)F)n[nH]c3c2)ccn1 [Example 8]; 210
5. O=C(Cc1ccc2cn[nH]c2c1)Nc1ccnc(C(=O)NC2(C(F)(F)F)CCC2)c1 [Example 5.1]; 150

(P) C#CC(C)(C)NC(=O)c1cc(NC(=O)Cc2ccc3cc[nH]c3c2)ccn1 [Example 1]
(Q) CC(C)(C)NC(=O)c1cc(NC(=O)Cc2ccc3cn[nH]c3c2)ccn1 [Example 2]
**Q:** # min-compare on EC50 between P and Q Mark your answer with the label of the selected entry.
**A:** P

(P) O=C(Cc1cc2[nH]ncc2cc1F)Nc1ccnc(C(=O)NC2(C(F)(F)F)CC2)c1 [Example 6.1]
(Q) C#CC1(NC(=O)c2cc(NC(=O)Cc3cc(Cl)c4cn[nH]c4c3)ccn2)CCCC1 [Example 6.4]
(R) O=C(Cc1ccc2cc[nH]c2c1)Nc1ccnc(C(=O)NC2(C(F)(F)F)CC2)c1 [Example 1.1]
**Q:** Place the items in sequence of falling EC50. Returns: the labels listed in the requested order.
**A:** P, R, Q
(P: 140 nM, R: 70 nM, Q: 20 nM)

(P) CC(C)(C)NC(=O)c1cc(NC(=O)Cc2cc(Cl)c3cn[nH]c3c2)ccn1 [Example 7.2]
(Q) C#CC(C)(C)NC(=O)c1cc(NC(=O)Cc2cccc3[nH]ncc23)ccn1 [Compound A, reference compound]
**Q:** Thinking about recorded EC50 values, which is higher, P or Q ? Mark your answer with the label of the selected entry.
**A:** Q
(Q: 1930 nM, P: 140 nM)
